Tested on: CAOV3
Assay: Primary qHTS to identify gynecologic anti-cancer compounds using libraries of approved drugs and bioactive compounds (AID 1345084); also: nearly all actives have a fitted effect of over 55% in size
Details: Gynecologic cancer cell panel viability, ATPlite luminescence, 48 h; series mostly up to 57.5 µM
Records with an inconclusive call do not appear. The source made the active and inactive calls. Calls follow the shape of the dose curve; as a rule, active = well fitted cell-killing curve with a large enough effect; inconclusive = small, poorly fitted or top-dose-only effect, or effect the other way; inactive = flat fitted curve, though single readings scatter.
Use one of these outcomes when replying: TRUE = active, FALSE = inactive

Q: What outcome does the record of this test show for OC[C@H]1O[C@@H](OC(CCCCc2ccc(O)cc2)CCc2ccc(O)cc2)[C@H](O)[C@@H](O)[C@@H]1O (stereo partly drawn) ?
Ans: FALSE

Q: What outcome does the record of this test show for C=C1C[C@@]23CCC4[C@@](C)(CCC[C@@]4(C)C(=O)OC)C2CC[C@@H]1C3 (stereo partly drawn) ?
Ans: FALSE

Q: What outcome does the record of this test show for C/C=C(\C)C(=O)O[C@H]1[C@@H](O[C@]2(COC(=O)CC(C)C)O[C@H](COC(=O)C(C)CC)[C@@H](OC(C)=O)[C@@H]2O)O[C@H](COC(C)=O)[C@@H](O)[C@@H]1O (stereo partly drawn) ?
Ans: FALSE

Q: What outcome does the record of this test show for Cc1ccc(NC(=O)c2ccc(CN3CC[C@H](N(C)C)C3)c(C(F)(F)F)c2)cc1Nc1nccc(-c2cncnc2)n1 ?
Ans: FALSE

Q: What outcome does the record of this test show for Cc1ccc(S(=O)(=O)c2ccc([N+](=O)[O-])o2)cc1 ?
Ans: TRUE

Q: What outcome does the record of this test show for CC(=O)O[C@H]1CC[C@@]2(C)C(CC[C@@H](C)[C@]23Cc2c(O)cc4c(c2O3)CN([C@@H](CCC(=O)O)C(=O)O)C4=O)C1(C)C (stereo partly drawn) ?
Ans: FALSE

Q: What outcome does the record of this test show for Cc1ccc(S(=O)(=O)Nc2ccccc2N2CCCCC2)s1 ?
Ans: FALSE

Q: What outcome does the record of this test show for C=C1[C@H](OC(C)=O)[C@H]2[C@@H](OC(C)=O)[C@](C)(OC(C)=O)C[C@]2(OC(C)=O)C(=O)[C@H](C)/C=C/C(C)(C)C(=O)[C@H](OC(=O)C(C)C)[C@H]1OC(C)=O ?
Ans: FALSE
